# assay method text: binders from COS7 lysate, DM2A8 probe, primary screen, torsin A project, cell lysate, small-molecule microarray, fluorescence 635/667 (AID 1065)
# settings: higher = more signal, COS7 lysate expressing mutant human TOR1A
measurement label: composite z-score
Please respond with just the number, no unit label.

Take a look at these entries with their results.
>>> meas_value("CC(=O)c1ccc(C(O)C2C=CC3C(=O)N(c4ccccc4)C(=O)C3N2Nc2ccc(C#N)cc2)cc1 (configuration not stated)")
0.233
>>> meas_value("COCCOC(=O)N1C(=O)[C@@]2(c3cc(C#CCCO)ccc31)[C@H](C(=O)Nc1nc3ccccc3s1)[C@H]1C(=O)O[C@H](c3ccccc3)[C@H](c3ccccc3)N1[C@@H]2c1ccccc1OCCO")
0.53
>>> meas_value("CN(C)CCCNC(=O)[C@@H]1c2ccccc2C(=O)N(Cc2ccccc2Cl)[C@H]1c1ccc(CO)cc1")
0.542
>>> meas_value("Cc1ccc(S[C@]2(C(=O)O)CC(=O)N(Cc3cc(C(F)(F)F)cc(C(F)(F)F)c3)[C@@H]2c2ccc(CO)cc2)cc1")
-0.378
>>> meas_value("COCCOC(=O)N1C(=O)[C@@]2(c3cc(C#CC4=CCCCC4)ccc31)[C@H](C(N)=O)[C@H]1C(=O)O[C@H](c3ccccc3)[C@H](c3ccccc3)N1[C@@H]2c1ccccc1OCCO")
0.33
>>> meas_value("CC(C)[Si](C#CCCCC#N)(O[C@H](c1ccccc1)c1cn([C@H](CO)Cc2ccccc2)nn1)C(C)C")
1.22

Continue with the molecule presented below.
Req: Consider the molecule shown here: CCC(CC)C(O)C1C=CC2C(=O)N(c3ccccc3)C(=O)C2N1Nc1ccc(C(C)C)cc1 (configuration not stated) What is its recorded composite z-score?
Resp: -0.207

The origin of these recorded values is PubChem BioAssay.
